# ASSAY DETAILS: logP by HPLC (EEC Directive 79/831 Annex V.A8)
# Format: physicochemical
# ASSAY SETUP: [c] LC-MS, neutral range, pH 7.8, 0.001 molar aqueous ammonium bicarbonate and acetonitrile
Classify as follows. Reported logP greater than or equal to 4: class 1. Reported logP below: class 0.

| SMILES DATA | CLASSIFICATION |
| --- | --- |
| Cc1ccc(F)cc1NC(=O)N1CCC(c2nc(C(=O)OCc3ccccc3Br)cs2)CC1 | class 0 |
| Cc1cc(CC(=O)N2CCC(c3nc(C(=O)OC4CCCCC4)cs3)CC2)n(C)n1 | class 0 |
| Cc1cc(C(F)(F)F)nn1CC(=O)N1CCN(c2nc(C(=O)SCc3ccccc3Cl)cs2)CC1 | class 1 |
| Cc1cc(CC(=O)N2CCC(c3nc(C(=O)OC4CCCCC4)cs3)CC2)nn1C | class 0 |
